Experimental System: recombinant human Meningioma Expressed Antigen 5 (MGEA5), also referred to as O-GlcNAcase (OGA) (Homo sapiens)
Construct: Full length OGA enzyme was purchased at OriGene (cat #TP322411); purchased OriGene TP322411
Sequence (O60502 whole entry): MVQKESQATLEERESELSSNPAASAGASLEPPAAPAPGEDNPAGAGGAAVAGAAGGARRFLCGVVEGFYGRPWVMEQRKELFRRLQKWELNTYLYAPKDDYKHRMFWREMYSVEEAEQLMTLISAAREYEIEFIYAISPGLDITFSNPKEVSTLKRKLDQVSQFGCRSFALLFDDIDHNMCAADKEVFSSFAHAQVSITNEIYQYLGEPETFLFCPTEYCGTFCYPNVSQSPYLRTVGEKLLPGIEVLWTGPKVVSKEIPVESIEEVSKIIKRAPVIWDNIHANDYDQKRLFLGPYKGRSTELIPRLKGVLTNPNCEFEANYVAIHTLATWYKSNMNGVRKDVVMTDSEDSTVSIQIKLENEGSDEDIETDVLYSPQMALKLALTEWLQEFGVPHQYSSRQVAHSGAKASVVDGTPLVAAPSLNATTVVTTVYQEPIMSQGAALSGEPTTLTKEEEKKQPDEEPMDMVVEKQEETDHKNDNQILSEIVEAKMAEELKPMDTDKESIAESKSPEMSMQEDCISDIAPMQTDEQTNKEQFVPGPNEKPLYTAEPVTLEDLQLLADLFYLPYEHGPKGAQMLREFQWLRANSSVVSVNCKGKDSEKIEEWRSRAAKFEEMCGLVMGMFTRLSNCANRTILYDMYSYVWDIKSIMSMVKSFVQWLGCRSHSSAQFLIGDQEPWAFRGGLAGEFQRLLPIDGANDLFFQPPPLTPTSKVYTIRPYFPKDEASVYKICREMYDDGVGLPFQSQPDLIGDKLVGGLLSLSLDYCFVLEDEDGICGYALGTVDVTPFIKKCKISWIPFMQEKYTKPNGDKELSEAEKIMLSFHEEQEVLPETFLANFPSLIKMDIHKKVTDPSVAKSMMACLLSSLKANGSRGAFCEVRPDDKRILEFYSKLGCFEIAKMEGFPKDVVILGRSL
Assay Comment: OGA biochemical assay (inhibition of FM-GlcNAc hydrolysis, fluorescence)
Condition Summary: FM-GlcNAc substrate, 6 h at room temperature, read-out: Enzymatic hOGA, pIC50 (converted)
Consider the cut-off 20 nM. If the recorded IC50 is strictly smaller, the label is fulfilled; if not, the label is not fulfilled.

{"Molecule": "CC(c1ccc2c(n1)OCCO2)N1CC[C@@H](Oc2ccc(C#N)nn2)C1 (single isomer, unassigned) [Product 54]", "Assigned Category": "not fulfilled"}
{"Molecule": "COc1cc(C[C@H]2CCN(C(C)c3ccc4c(n3)OCCC4)C2)cc(C)n1 (single isomer, unassigned) [Product 87]", "Assigned Category": "not fulfilled"}
{"Molecule": "Cc1cc(OC[C@]2(C)CCN([C@H](C)c3ccc4c(n3)OCCO4)C2)cc(C)n1 (single isomer, unassigned) [Product 101]", "Assigned Category": "not fulfilled"}
{"Molecule": "COc1cc(C[C@@H]2CCN([C@@H](C)c3cc4c(cc3F)OCCO4)C2)cc(C)n1 [Product 43]", "Assigned Category": "fulfilled"}
{"Molecule": "COc1cc(C[C@H]2CN([C@@H](C)c3ccc4c(n3)OCCO4)C[C@@H]2C)cc(C)n1 (stereo in doubt) [Product 123]", "Assigned Category": "not fulfilled"}
{"Molecule": "COc1cc(C[C@H]2CCN(C(C)c3nc4c(cc3F)CCO4)C2)cc(C)n1 (single isomer, unassigned) [Product 84]", "Assigned Category": "fulfilled"}
{"Molecule": "Cc1cc(OC[C@]2(C)CCN([C@H](C)c3ccc4c(n3)OCCO4)C2)cc(C)n1 (single isomer, unassigned) [Product 102]", "Assigned Category": "not fulfilled"}
{"Molecule": "Cc1ccc(O[C@H]2CCN(C(C)c3ccc4c(n3)OCCO4)C2)cn1 (some centres unmarked) [Product 56]", "Assigned Category": "not fulfilled"}
{"Molecule": "Cc1cc(O[C@@H]2CCN(C(C)c3nc4c(cc3F)OCCO4)C2)cc(C)n1 (some centres unmarked) [Product 39]", "Assigned Category": "fulfilled"}
{"Molecule": "COc1cc(O[C@H]2CCN(C(C)c3ccc4c(n3)OCCO4)C2)cc(C)n1 (some centres unmarked) [Product 63]", "Assigned Category": "not fulfilled"}
{"Molecule": "Cc1cc(C[C@H]2CCN([C@H](C)c3cc4c(cc3F)OCCO4)C2)cc(C)n1 [Product 31]", "Assigned Category": "not fulfilled"}
{"Molecule": "Cc1cc(O[C@H]2CCN(C(C)c3ccc4c(n3)OCCO4)C2)cc(C)n1 (single isomer, unassigned) [Product 72]", "Assigned Category": "not fulfilled"}
{"Molecule": "COc1cc(C[C@H]2CCN(C(C)c3nc4c(cc3F)CCO4)C2)cc(C)n1 (mixture of isomers) [Product 83]", "Assigned Category": "fulfilled"}
{"Molecule": "Cc1cc(C[C@H]2CN(C(C)c3ccc4c(n3)OCCO4)C[C@@H]2C)cc(C)n1 (mixture of isomers) [Product 60]", "Assigned Category": "not fulfilled"}
{"Molecule": "Cc1cc(C[C@@H]2CCN(C(C)c3ccc4c(n3)OCCO4)C2)nc(C)n1 (some centres unmarked) [Product 37]", "Assigned Category": "not fulfilled"}
{"Molecule": "CC(c1nc2c(cc1F)OCCO2)N1CC[C@@H](Oc2ccc(C(F)(F)F)nc2)C1 (some centres unmarked) [Product 127]", "Assigned Category": "not fulfilled"}
